Here the recorded inhibition is given for each entry.
Biological target: 1-phosphatidylinositol 4,5-bisphosphate phosphodiesterase gamma-1 (Homo sapiens)
Test: PLC-gamma1 enzyme inhibitors, primary screen, biochemical, fluorescence, purified enzyme (AID 720700)
Settings: purified PLC-gamma1, fluorogenic substrate, at 12.2 µM, active compounds read high
Among all 370,000 compounds or so, about 3,100 (0.84%) were called active. Many of the other results were omitted from the sample, so actives are more common in it than they were.
Numbers only; they are read as %.

Param item = CCCc1ccc(OCC(O)CN2CCN(C(=O)OCC)CC2)cc1 (stereo not given) ; retrieve measured inhibition. 8.68

Then what about the compound COC(=O)C1CN(Cc2ccc(F)cc2)CCS(=O)(=O)N1Cc1ccc(Cl)cc1 (stereo not given) ? -0.52

Then what about the compound Cc1cc(NC(=O)c2ccccc2C)no1 ? 3.09

Then what about the compound CN(C)[C@H]1CCN(c2cccc3c2S(=O)(=O)N2CC[C@H](C2)O3)C1 ? 1.23

Then what about the compound COc1ccc(NC(=O)CC2C(=O)NC3CCCCC3N2C(=O)c2ccc(F)cc2)cc1 (stereo not given) ? 0.91

New cases:
Param item = Cc1nc(-c2ccc(F)cc2)c(CC(=O)Nc2cc(S(=O)(=O)N3CCCCC3)ccc2C)s1 ; retrieve measured inhibition. 0.89

Then what about the compound O=C(C(c1ccccc1)c1ccccc1)N1CCN(CC(O)COc2ccccc2)CC1 (stereo not given) ? 9.59

Then what about the compound O=C(c1cccc(C(F)(F)F)c1)N1CC[C@H]2[C@H](CCCN2Cc2cc(F)cc(F)c2)C1 ? -2.47

Then what about the compound COc1ccccc1C(=O)N1C(CC(=O)Nc2ccccc2C)C(=O)NC2CCCCC21 (stereo not given) ? 9.7

Then what about the compound Cc1ccc(S(=O)(=O)N2CCN(C(=O)Cc3sc(C)nc3-c3ccc(F)cc3)CC2)c(C)c1 ? -4.71
